Origin of the recorded values: patent US9169241B2

Listed below: melting point values for each entry.

Example entries begin here.
# SMILES_STRUCTURE, RESULT
records = [
    ("COc1cc2c(Oc3ccc(NS(=O)(=O)c4ccccc4C(F)(F)F)c(F)c3)ccnc2cc1OCCCN1CCCC1", "152 to 156 °C"),
    ("COc1cc2c(Oc3ccc(NS(=O)(=O)c4c(C)nn(C)c4C)cc3F)ccnc2cc1OCCCN1CCC(C)CC1", "88 to 90 °C"),
    ("COc1cc2c(Oc3ccc(NS(=O)(=O)c4cc(F)ccc4F)cc3Cl)ccnc2cc1OCCCN1CCN(C)CC1", "118 to 121 °C"),
]

Determine its reported melting point: CCn1cc(S(=O)(=O)Nc2cccc(Oc3ccnc4cc(OCCCN5CCN(C)CC5)c(OC)cc34)c2)cn1
87 to 90 °C

Provide one value: measured melting point of COc1cc2c(Oc3ccc(NS(=O)(=O)c4sc(NC(C)=O)nc4C)cc3F)ccnc2cc1OCCCN(C)C
164 to 166 °C

State, in one line, measured melting point of COc1cc2c(Oc3ccc(NS(=O)(=O)c4cccc(-c5ccccc5)c4)cc3F)ccnc2cc1OCCCN1CCCCC1
113 to 115 °C

Supply measured melting point of COc1ccc2nccc(Oc3ccc(NS(=O)(=O)c4ccccc4C(F)(F)F)cc3F)c2c1 in your reply.
168 to 169 °C
